target: Glutamate receptor ionotropic, NMDA 2A (Rattus norvegicus, UniProt Q00959); assay: Inhibition of [3H]CPP binding to rat N-methyl-D-aspartic acid receptor 2A
Sequence (Q00959 whole entry): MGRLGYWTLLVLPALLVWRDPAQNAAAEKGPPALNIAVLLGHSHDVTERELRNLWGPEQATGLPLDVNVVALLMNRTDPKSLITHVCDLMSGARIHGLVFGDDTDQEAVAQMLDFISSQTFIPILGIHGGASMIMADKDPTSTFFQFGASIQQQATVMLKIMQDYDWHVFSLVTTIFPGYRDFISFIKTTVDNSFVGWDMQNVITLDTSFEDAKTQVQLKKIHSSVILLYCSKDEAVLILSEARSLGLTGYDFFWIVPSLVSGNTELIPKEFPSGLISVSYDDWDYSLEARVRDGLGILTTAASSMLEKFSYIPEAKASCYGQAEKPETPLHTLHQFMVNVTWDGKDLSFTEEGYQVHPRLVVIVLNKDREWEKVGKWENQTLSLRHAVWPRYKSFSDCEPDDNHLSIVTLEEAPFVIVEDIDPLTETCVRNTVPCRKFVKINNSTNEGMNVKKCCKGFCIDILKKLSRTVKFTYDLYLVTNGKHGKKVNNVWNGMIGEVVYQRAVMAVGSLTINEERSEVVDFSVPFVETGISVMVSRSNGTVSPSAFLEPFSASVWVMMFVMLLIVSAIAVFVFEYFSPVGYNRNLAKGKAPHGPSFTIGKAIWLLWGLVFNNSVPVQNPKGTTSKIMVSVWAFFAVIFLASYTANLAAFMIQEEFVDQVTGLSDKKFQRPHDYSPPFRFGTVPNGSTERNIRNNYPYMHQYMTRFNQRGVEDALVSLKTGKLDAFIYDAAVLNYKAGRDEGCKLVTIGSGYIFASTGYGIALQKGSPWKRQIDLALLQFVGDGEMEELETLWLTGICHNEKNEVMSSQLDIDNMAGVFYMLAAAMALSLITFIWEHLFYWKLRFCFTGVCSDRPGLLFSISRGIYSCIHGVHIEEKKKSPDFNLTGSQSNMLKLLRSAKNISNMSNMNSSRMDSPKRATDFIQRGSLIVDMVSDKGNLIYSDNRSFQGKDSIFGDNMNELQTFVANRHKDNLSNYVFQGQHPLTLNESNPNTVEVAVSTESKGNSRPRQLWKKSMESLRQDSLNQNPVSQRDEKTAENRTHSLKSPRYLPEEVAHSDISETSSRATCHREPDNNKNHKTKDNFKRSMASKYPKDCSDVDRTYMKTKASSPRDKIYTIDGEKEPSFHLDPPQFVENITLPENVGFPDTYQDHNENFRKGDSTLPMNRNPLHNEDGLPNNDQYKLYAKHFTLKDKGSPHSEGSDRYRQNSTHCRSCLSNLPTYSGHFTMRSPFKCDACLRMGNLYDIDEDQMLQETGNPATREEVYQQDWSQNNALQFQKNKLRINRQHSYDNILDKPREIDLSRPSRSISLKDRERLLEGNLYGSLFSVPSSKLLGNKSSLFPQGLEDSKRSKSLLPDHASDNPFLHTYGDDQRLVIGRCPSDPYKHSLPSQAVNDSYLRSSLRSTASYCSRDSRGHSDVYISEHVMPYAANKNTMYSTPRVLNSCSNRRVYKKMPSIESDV
Item-by-item account of IC50
Form field: result (number plus unit)

Some molecules with known IC50 results, for comparison:
Case O=C(O)[C@@H]1C[C@H](CP(=O)(O)O)CCN1 (single isomer, unassigned) [SELFOTEL] , Glutamate receptor ionotropic, NMDA 2A (Rattus norvegicus, UniProt Q00959), IC50 recorded as 95 nM

Case C/C(=C\[C@@H](N)C(=O)O)CP(=O)(O)O [CGP-37849] , Glutamate receptor ionotropic, NMDA 2A (Rattus norvegicus, UniProt Q00959), IC50 recorded as 35 nM

New cases:
Case "N[C@@H](CCCP(=O)(O)O)C(=O)O" , Glutamate receptor ionotropic, NMDA 2A (Rattus norvegicus, UniProt Q00959), IC50 recorded as 290 nM

Case "N[C@H](CC(=O)CP(=O)(O)O)C(=O)O" , Glutamate receptor ionotropic, NMDA 2A (Rattus norvegicus, UniProt Q00959), IC50 recorded as 110 nM

---

molecular target: UniProt Q00959; test: Inhibition of [3H]Glu binding to rat N-methyl-D-aspartic acid receptor 2A
ASSAY READOUT: IC50 (nM)
The reply should be a number in nM, with the unit left off.

Some compounds with known IC50 results, for comparison:
Recorded result, C/C(=C\[C@@H](N)C(=O)O)CP(=O)(O)O [CGP-37849] , IC50: 220

Recorded result, O=C(O)[C@@H]1C[C@H](CP(=O)(O)O)CCN1 (single isomer, unassigned) [SELFOTEL] , IC50: 840

Recorded result, "N[C@@H](CCCP(=O)(O)O)C(=O)O" , IC50: 1500

Let us move to another entry and its IC50.
Recorded result, "CCC/C(=C\[C@@H](N)C(=O)O)CP(=O)(O)O" , IC50: 230
